# System: thyroid hormone sulfotransferase activity
# MEASUREMENT_NOTES: 3,3′-T2 sulfation kinetics in pooled human liver cytosol
# Type: biochemical
# RECORDED_CONDITIONS: human, pooled human liver cytosol
MEASURED_ENDPOINT: microsomal CLint (µL/min/mg)

                                   compound                              study_target  readout_number
0  N[C@@H](Cc1ccc(Oc2ccc(O)c(I)c2)c(I)c1)C(=O)O [3,3′-T2, 3,3′-diiodothyronine]  thyroid hormone sulfotransferase activity             145

###

The entries below come with measured IC50 values attached.
# STUDY_TARGET: thyroid hormone sulfotransferase activity in pooled human liver cytosol
# MEASUREMENT_NOTES: Inhibition of 3,3′-T2 sulfotransferase activity
# RECORDED_CONDITIONS: read-out: IC50 (nM) (95% CI) for the inhibition of 3,3′-T2S formation; 1 μM 3,3′-T2, 0.25 mg protein/ml pooled human liver cytosol, 50 μM PAPS, 30 min, 37°C
MEASURED_ENDPOINT: IC50 (nM)

>>> print(df.to_string())
                                 smiles_repr                              study_target  readout_number
 0              Oc1cc(Cl)ccc1Oc1ccc(Cl)cc1Cl  thyroid hormone sulfotransferase activity in pooled human liver cytosol            1410
 1      Oc1cc(Oc2cc(Br)c(Br)cc2Br)c(Br)cc1Br  thyroid hormone sulfotransferase activity in pooled human liver cytosol             520
 2      Oc1cc(Br)cc(Br)c1Oc1cc(Br)c(Br)cc1Br  thyroid hormone sulfotransferase activity in pooled human liver cytosol             310
 3          Oc1cc(Oc2ccc(Br)cc2Br)c(Br)cc1Br  thyroid hormone sulfotransferase activity in pooled human liver cytosol             400
 4                          Oc1c(I)cc(I)cc1I  thyroid hormone sulfotransferase activity in pooled human liver cytosol             140
 5          Oc1c(Br)ccc(Oc2ccc(Br)cc2Br)c1Br  thyroid hormone sulfotransferase activity in pooled human liver cytosol              60
 6  CC(C)(c1cc(Cl)c(O)c(Cl)c1)c1cc(Cl)c(O)c(Cl)c1  thyroid hormone sulfotransferase activity in pooled human liver cytosol             340
 7          Oc1cc(Br)c(Oc2ccc(Br)cc2Br)cc1Br  thyroid hormone sulfotransferase activity in pooled human liver cytosol             650
 8      Oc1c(Br)cc(Oc2ccc(Br)cc2Br)c(Br)c1Br  thyroid hormone sulfotransferase activity in pooled human liver cytosol              24
 9                Oc1cccc(Oc2ccc(Br)cc2Br)c1  thyroid hormone sulfotransferase activity in pooled human liver cytosol             410
10  CC(C)(c1cc(I)c(O)c(I)c1)c1cc(I)c(O)c(I)c1  thyroid hormone sulfotransferase activity in pooled human liver cytosol           13200
11              Oc1cc(Oc2ccc(Br)cc2Br)ccc1Br  thyroid hormone sulfotransferase activity in pooled human liver cytosol             190
12                    Oc1ccccc1Oc1ccc(Br)cc1  thyroid hormone sulfotransferase activity in pooled human liver cytosol             500
13  Oc1c(Br)cc(Br)c(Oc2cc(Br)c(Br)cc2Br)c1Br  thyroid hormone sulfotransferase activity in pooled human liver cytosol              80
14          Oc1cc(Br)cc(Br)c1Oc1ccc(Br)cc1Br  thyroid hormone sulfotransferase activity in pooled human liver cytosol             130
15                       Oc1c(Br)cc(Br)cc1Br  thyroid hormone sulfotransferase activity in pooled human liver cytosol             8.3
